System: EKVX NSCLC
Assay: NCI tumour cell line growth inhibition, 48 h
Can you tell me TGI for the items I'm about to list?

Req: Tell me its TGI on EKVX NSCLC: COC(=O)C(Cc1ccc2c(c1)CCCC2)Cc1cc2c(cc1C(O)OC)CCC2 (stereo unspecified)
Resp: > 100 µM

Req: Tell me its TGI on EKVX NSCLC: "CCOP(=O)(OCC)/C(C#N)=C\c1ccc(OC(C)=O)cc1"
Resp: > 100 µM

Req: Tell me its TGI on EKVX NSCLC: "CCCNc1[nH]c(C(=O)c2ccccc2)c(N)c1C(=S)Nc1ccccc1"
Resp: > 100 µM

Req: Tell me its TGI on EKVX NSCLC: "NS(=O)(=O)c1nnc(NS(=O)(=O)c2ccc(F)cc2)s1"
Resp: > 100 µM

Req: Tell me its TGI on EKVX NSCLC: "O=C(Nc1ccccc1)c1cc(S(=O)(=O)n2cc[nH]c2=O)c(S)cc1Cl"
Resp: > 100 µM

Req: Tell me its TGI on EKVX NSCLC: "O=c1ccc2nc(C(F)(F)F)nn(-c3ccccc3)c-2c1"
Resp: 27.1 µM

Req: Tell me its TGI on EKVX NSCLC: CCC(=O)OC1CCC2C3CCC(=O)OC3C(C)(CCC(=O)O)CC12C (stereo unspecified)
Resp: > 100 µM

Req: Tell me its TGI on EKVX NSCLC: "Cc1cc2c3ccccc3nc2c2cc[nH]c(C)c12"
Resp: > 70.7 µM

Req: Tell me its TGI on EKVX NSCLC: "Cc1cc(Oc2ccccc2)ccc1Nc1ncnc2ccc(-c3cnc(Cl)c(NS(C)(=O)=O)c3)cc12"
Resp: 10.6 µM

Req: Tell me its TGI on EKVX NSCLC: "CCOC(=O)c1c(SCc2ccccc2)nc2c3ccccc3ccn12"
Resp: > 100 µM

Req: Tell me its TGI on EKVX NSCLC: "C=C1CCc2ccccc2C1=O"
Resp: > 100 µM

The measurements presented in this section are drawn from PubChem BioAssay (NCI).
